target_system: EIN^sc (Streptomyces coelicolor)
Sequence (Q9KZP1 1-230): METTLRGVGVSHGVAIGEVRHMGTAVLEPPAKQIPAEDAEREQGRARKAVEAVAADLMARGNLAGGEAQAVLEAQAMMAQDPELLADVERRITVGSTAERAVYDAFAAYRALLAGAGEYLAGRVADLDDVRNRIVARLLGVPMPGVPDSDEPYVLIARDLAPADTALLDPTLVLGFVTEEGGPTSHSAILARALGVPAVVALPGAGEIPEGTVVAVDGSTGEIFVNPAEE
test_name: biochemical
Type: binding
pKd: −log10 of the molar value.
Parameter: pKd. Scope: all listed entries.
assay_readout: pKd

> print(dat)
                                  substance  assay.readout  numeric.readout
1  Ac-GWAEGLHARPASIFARAATATG-NH2 [Peptide V23A]            pKd             5.05
2  Ac-GWAEGLHARPASIFVRAATATG-NH2 [Wild-type]            pKd             5.00

====

target_system: Rsd^ec (Escherichia coli)
Construct: His-tag; made in house; host or cells: E. coli C41
Sequence (P0AFX4 whole entry): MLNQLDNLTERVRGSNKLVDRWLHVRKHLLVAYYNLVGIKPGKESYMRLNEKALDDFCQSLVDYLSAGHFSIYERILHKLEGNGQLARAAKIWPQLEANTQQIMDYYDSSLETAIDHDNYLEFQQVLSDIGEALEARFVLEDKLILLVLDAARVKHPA
test_name: Fluorescence titration, peptide/Rsd^ec binding
assay_readout: Kd (µM)

> print(dat)
                                  substance  numeric.readout
1  Ac-GWAEGLHARPASIFVRAATATG-NH2 [Wild-type]                5
2  Ac-GWAEGLHARPASAFVRAATATG-NH2 [Peptide I21A]                8
